molecular target: Trp-p8 (Homo sapiens, UniProt Q7Z2W7, T58I); construct: expressed in transfected cells; experiment: Cell viability (ATP) assay for Trp-p8 antagonists: protection of CHO/Trp-p8 cells from toxic control agonist D-1607; assay type: cell-based; conditions: Table 3, Formula VII antagonists; 10 μM compound plus toxic concentration of control agonist, CHO/Trp-p8 cells, 37° C.; ATP level relative to DMSO
Sequence (Q7Z2W7 whole entry T58I): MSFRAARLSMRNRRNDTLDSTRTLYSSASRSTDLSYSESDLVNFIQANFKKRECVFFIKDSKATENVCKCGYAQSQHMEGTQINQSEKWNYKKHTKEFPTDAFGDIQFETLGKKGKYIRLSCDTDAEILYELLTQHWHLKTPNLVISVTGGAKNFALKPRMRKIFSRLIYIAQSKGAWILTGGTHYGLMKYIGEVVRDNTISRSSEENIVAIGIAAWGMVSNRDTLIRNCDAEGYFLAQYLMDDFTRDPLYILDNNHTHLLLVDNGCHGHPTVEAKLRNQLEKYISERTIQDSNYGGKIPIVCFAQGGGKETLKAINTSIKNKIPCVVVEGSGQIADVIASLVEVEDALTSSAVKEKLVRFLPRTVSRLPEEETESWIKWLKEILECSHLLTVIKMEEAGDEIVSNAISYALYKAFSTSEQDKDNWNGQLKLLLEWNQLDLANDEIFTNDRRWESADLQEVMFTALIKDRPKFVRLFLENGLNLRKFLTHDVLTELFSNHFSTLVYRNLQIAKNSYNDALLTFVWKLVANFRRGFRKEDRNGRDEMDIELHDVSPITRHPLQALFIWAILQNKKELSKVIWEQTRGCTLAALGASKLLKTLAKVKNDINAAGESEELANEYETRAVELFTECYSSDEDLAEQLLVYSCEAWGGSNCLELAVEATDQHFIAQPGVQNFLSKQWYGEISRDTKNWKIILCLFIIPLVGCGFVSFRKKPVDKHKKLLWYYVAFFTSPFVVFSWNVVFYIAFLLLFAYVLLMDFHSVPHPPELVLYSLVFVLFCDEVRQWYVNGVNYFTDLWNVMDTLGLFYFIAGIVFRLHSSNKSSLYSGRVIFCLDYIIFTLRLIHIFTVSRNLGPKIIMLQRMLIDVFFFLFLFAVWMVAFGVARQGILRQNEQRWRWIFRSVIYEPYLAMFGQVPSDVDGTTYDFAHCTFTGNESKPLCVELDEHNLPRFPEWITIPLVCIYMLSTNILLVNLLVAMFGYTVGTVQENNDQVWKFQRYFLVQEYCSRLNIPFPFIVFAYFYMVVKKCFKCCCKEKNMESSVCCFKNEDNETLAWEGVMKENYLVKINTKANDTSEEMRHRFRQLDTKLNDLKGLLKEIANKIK

compound	Rel. Viab. (%) at 10 μM
Clc1ccccc1N1CCN(c2ncnc3c2cnn3-c2ccccc2)CC1 [compound 51]	100%
Cc1nc2sc(C(c3cccs3)N3CCN(C(c4ccccc4)c4ccccc4)CC3)c(O)n2n1 (stereo not shown) [compound 1039]	84%
O=[N+]([O-])c1cc(S(=O)(=O)C(F)(F)F)ccc1N1CCN(c2ccccc2)CC1 [compound 107]	98%
O=C1C(c2ccc(Cl)cc2)N(C2CCCCC2)C(=O)CN1C1CCCC1 (stereo not shown) [compound 1284]	95%
CC1CCC(C(C)C)C(OCC(O)CN2CCN(Cc3ccc(Cl)cc3)CC2)C1 (stereo not shown) [compound 2496]	82%
O=C1c2ccccc2-c2onc3c(N4CCN(C5CCCCC5)CC4)cc(Nc4ccc5c(c4)OCCO5)c1c23 [compound 882]	86%
Cc1cc(N2CCN(Cc3ccc4c(c3)SCO4)CC2)n2nc(C)c(-c3ccc(Br)cc3)c2n1 [compound 1313]	92%

----------
Each entry below lists one item and its recorded Rel. Viab. (%) at 10 μM value.
Target: Trp-p8 (Homo sapiens, UniProt Q7Z2W7, T58I)
Construct: expressed in transfected cells
Experiment: Cell viability (ATP) assay for Trp-p8 antagonists: protection of CHO/Trp-p8 cells from toxic control agonist D-1607
Assay type: cell-based
Conditions: Table 3, Formula VII antagonists; 10 μM compound plus toxic concentration of control agonist, CHO/Trp-p8 cells, 37° C.; ATP level relative to DMSO
Procedure: FIG. 4 is a graph depicting exemplary results from a primary screen for Trp-p8 antagonists using the ATP viability assay, described herein, with CHO/Trp-p8 cells at 37° C. CHO/Trp-p8 cells were exposed to compounds, at different concentrations, in 1% DMSO or 1% DMSO in combination with a toxic concentration of the Trp-p8 agonist 1607. The viability of cells was measured after 24-26 hours at 37° C. using the ATP assay. […]
resultType: Rel. Viab. (%) at 10 μM

compound	resultType	val
COc1cc(C(c2sc3nc(C)nn3c2O)N2CCN(C(c3ccccc3)c3ccccc3)CC2)cc(OC)c1OC (stereo not shown) [compound 1028]	Rel. Viab. (%) at 10 μM	85
Cc1cc(N2CCN(c3cc(N4CCN(CCO)CC4)ccc3[N+](=O)[O-])CC2)c2ccccc2n1 [compound 74]	Rel. Viab. (%) at 10 μM	81
O=[N+]([O-])c1ccc(N2CCN(c3ccc(C(F)(F)F)cc3[N+](=O)[O-])CC2)cc1NCc1ccccc1 [compound 27]	Rel. Viab. (%) at 10 μM	87
Cc1nc2sc(C(c3cccc(F)c3)N3CCN(C(c4ccccc4)c4ccccc4)CC3)c(O)n2n1 (stereo not shown) [compound 1026]	Rel. Viab. (%) at 10 μM	92
c1ccc(CNc2nc(N3CCN(c4ccccc4)CC3)nc3ccccc23)cc1 [compound 67]	Rel. Viab. (%) at 10 μM	102
Cc1nc2sc(C(c3ccc(Br)cc3)N3CCN(C(c4ccccc4)c4ccccc4)CC3)c(O)n2n1 (stereo not shown) [compound 1021]	Rel. Viab. (%) at 10 μM	92
Cc1nc2sc(C(c3cccc(O)c3)N3CCN(C(c4ccccc4)c4ccccc4)CC3)c(O)n2n1 (stereo not shown) [compound 1027]	Rel. Viab. (%) at 10 μM	84
Fc1ccc(N2CCN(c3ncnc4c3cnn4-c3ccccc3)CC2)cc1 [compound 159]	Rel. Viab. (%) at 10 μM	95
Cc1ccc(C)n1-c1ccc(N2CCN(c3ccccc3)CC2)c([N+](=O)[O-])c1 [compound 103]	Rel. Viab. (%) at 10 μM	99
Cc1nc(N2CCOCC2)nc(N2CCN(c3ccccc3)CC2)c1[N+](=O)[O-] [compound 69]	Rel. Viab. (%) at 10 μM	106
FC(F)(F)Oc1ccc(Nc2nc(N3CCCCCC3)nc(N3CCN(C45CC6CC(CC(C6)C4)C5)CC3)n2)cc1 [compound 809]	Rel. Viab. (%) at 10 μM	89
c1ccc(Cc2nc(N3CCN(c4ccccn4)CC3)c3c4c(sc3n2)CCCC4)cc1 [compound 1323]	Rel. Viab. (%) at 10 μM	88
O=[N+]([O-])c1cc(Cl)ccc1N1CCN(c2ccc([N+](=O)[O-])c3cccnc23)CC1 [compound 34]	Rel. Viab. (%) at 10 μM	82
c1ccc(Cn2ncc3c(N4CCN(c5ccccn5)CC4)ncnc32)cc1 [compound 13]	Rel. Viab. (%) at 10 μM	91
Cc1ccc(C2C(=O)N(C3CCC(C)CC3)CC(=O)N2C2CCCC2)cc1 (stereo not shown) [compound 1262]	Rel. Viab. (%) at 10 μM	86
O=C1C(c2ccc(F)cc2Cl)N(C2CCCc3ccccc32)C(=O)CN1C1CCCCCC1 (stereo not shown) [compound 1280]	Rel. Viab. (%) at 10 μM	87
